The values you see were collected from PubChem BioAssay AID1469.

test.target: Thyroid hormone receptor beta (Homo sapiens)
measurement.notes: qHTS for Inhibitors of the Interaction of Thyroid Hormone Receptor and Steroid Receptor Coregulator 2; further: nearly all actives have a fitted effect of over 50% in size
stated.conditions: TRbeta-SRC2 peptide binding, fluorescence polarization, receptor liganded with 1 µM T3; series mostly up to 106 µM
Screen size: about 280,000 compounds; about 180 (0.064%) were called active. The call rests on the fitted dose curve; in most records, active means well fitted inhibition curve with a large enough effect; inconclusive means small, poorly fitted or top-dose-only effect, or effect the other way; inactive means flat fitted curve, though single readings scatter. The full list was thinned out, with actives kept by preference.
Outcomes: active, inactive

compound | test.target | answer.label
Cc1ccc2nc(-c3ccc(O)cc3)c(Nc3ccc4c(c3)OCO4)n2c1 | Thyroid hormone receptor beta (Homo sapiens) | inactive
O=C(Nc1cc(Cl)cc(Cl)c1)c1ccc2c(c1)N(Cc1cccc(Cl)c1)C(=O)c1ccccc1S2=O (stereo not given) | Thyroid hormone receptor beta (Homo sapiens) | inactive
Cc1cc(C)cc(NC(=O)CSc2oc(-c3ccccc3)nc2S(=O)(=O)c2ccc(Cl)cc2)c1 | Thyroid hormone receptor beta (Homo sapiens) | inactive
CCOC(=O)c1cnc2c(C)cc(C)cc2c1Nc1ccc(N2CCOCC2)cc1 | Thyroid hormone receptor beta (Homo sapiens) | inactive
CCOC(=O)c1c(C)oc2nc(C)nc(N3CCN(c4ccc(OC)cc4)CC3)c12 | Thyroid hormone receptor beta (Homo sapiens) | inactive
Cc1nnc(NC(=O)CSc2nc3c([nH]c4ccccc43)c(=O)n2-c2cccc(Cl)c2)s1 | Thyroid hormone receptor beta (Homo sapiens) | inactive
COc1c(O)c2c(=O)cc(OC)c3c4c(OC)cc(=O)c5c(O)c(OC)c6c(c(c1C[C@@](C)(O)[C@H]6C(C)=O)c23)c54 | Thyroid hormone receptor beta (Homo sapiens) | active
COc1ccc(C2=NC(c3ccncc3)=Nc3ccc(Br)cc3N2)cc1 | Thyroid hormone receptor beta (Homo sapiens) | inactive
COc1ccccc1N1CCN(C(CNC(=O)C(=O)NCc2ccc(C)cc2)c2cccnc2)CC1 (stereo not given) | Thyroid hormone receptor beta (Homo sapiens) | inactive
O=C(/C=C/c1ccccc1[N+](=O)[O-])OC1CCCCC1=O (stereo not given) | Thyroid hormone receptor beta (Homo sapiens) | inactive
CC1CCCCC1NC(=O)/C(C#N)=C/C=C/c1ccccc1[N+](=O)[O-] (stereo not given) | Thyroid hormone receptor beta (Homo sapiens) | active
O=C(CSc1nccn1-c1ccc(F)cc1)Nc1cccc2ccccc12 | Thyroid hormone receptor beta (Homo sapiens) | inactive
Cc1cccc(N2CCN(C(=O)CCn3c(=O)c4cccn4c4cccnc43)CC2C)c1 (stereo not given) | Thyroid hormone receptor beta (Homo sapiens) | inactive
COc1cc(NC(=O)c2noc3c2CSc2ccccc2-3)cc(OC)c1OC | Thyroid hormone receptor beta (Homo sapiens) | inactive
CCc1c(C(=O)O)c(=O)cnn1-c1ccc(Cl)cc1 | Thyroid hormone receptor beta (Homo sapiens) | inactive
COC(=O)c1sc(=S)n(-c2ccc(Cl)cc2)c1C | Thyroid hormone receptor beta (Homo sapiens) | inactive
CCOc1cccc(CC(=O)N2CCc3c([nH]c4ccccc34)C2c2ccc(OC)cc2)c1OCC (stereo not given) | Thyroid hormone receptor beta (Homo sapiens) | inactive
COc1cccc(CNC(=O)CCC(=O)N2CC3CCCN3c3ccccc32)c1 (stereo not given) | Thyroid hormone receptor beta (Homo sapiens) | inactive
COc1ccc(N2CCN(c3cc(C)nc4nncn34)CC2)cc1 | Thyroid hormone receptor beta (Homo sapiens) | inactive
CCOc1cc(-c2nnc(SCC(=O)NC3CCCCC3)nc2-c2ccc(OC)c(OCC)c2)ccc1OC | Thyroid hormone receptor beta (Homo sapiens) | inactive

---

test.target: Thyroid hormone receptor beta (Homo sapiens)
measurement.notes: qHTS for Inhibitors of the Interaction of Thyroid Hormone Receptor and Steroid Receptor Coregulator 2; further: nearly all actives have a fitted effect of over 50% in size
stated.conditions: TRbeta-SRC2 peptide binding, fluorescence polarization, receptor liganded with 1 µM T3; series mostly up to 106 µM
In all, about 280,000 compounds went through this assay and about 180 (0.064%) were called active. What follows is part of a selection rich in actives, with near analogues and random picks from the rest.

compound | test.target | outcome
CCOc1ccccc1N(CC)C(=O)c1cc2ccc3cccnc3c2[nH]1 | Thyroid hormone receptor beta (Homo sapiens) | inactive
Cc1ccc(NC(=O)c2oc3ccc(S(=O)(=O)N4CCCCC4)cc3c2C)cc1Cl | Thyroid hormone receptor beta (Homo sapiens) | inactive
CCOc1cccc2sc(N3CCN(C(=O)C4CC4)CC3)nc12 | Thyroid hormone receptor beta (Homo sapiens) | inactive
O=C(NCCCN1CCN(c2cccc(Cl)c2)CC1)c1nnc(Cc2ccc(F)cc2Cl)o1 | Thyroid hormone receptor beta (Homo sapiens) | inactive
Cc1ccc(Nc2nnc(-c3ccc(C)c(S(=O)(=O)N4CCCCC4)c3)c3ccccc23)cc1 | Thyroid hormone receptor beta (Homo sapiens) | inactive
COc1ccc(N2CCN(C(=O)C3CCCN(C(=O)c4cc5sccc5n4C)C3)CC2)cc1 (stereo not given) | Thyroid hormone receptor beta (Homo sapiens) | inactive
COc1ccc(-c2cc(NCc3ccc(F)cc3)n3cnnc3n2)cc1 | Thyroid hormone receptor beta (Homo sapiens) | inactive
CCOc1ccc(C2C(=O)N(C3CCCCC3)CC(=O)N2CCC2=CCCCC2)cc1OC (stereo not given) | Thyroid hormone receptor beta (Homo sapiens) | inactive
COc1ccc(-c2nc(C)c(CCNC(=O)c3ccc(C(F)(F)F)cc3)s2)cc1OC | Thyroid hormone receptor beta (Homo sapiens) | inactive
COc1ccc(Cl)cc1-n1c(CCC(=O)O)ccc1-c1ccc(C)cc1 | Thyroid hormone receptor beta (Homo sapiens) | inactive
